# Tested on: DMPK
# MEASUREMENT_DESCRIPTION: DMPK knockdown by transfected antisense oligonucleotides in DM1 C15 myotubes at 0.5 nM and 50 nM
# Type: cell-based
# TEST_SETTINGS: 0.5 nM oligonucleotide, 72 hours, qPCR, relative to vehicle control = 1.00
READOUT_NAME: Normalized DMPK Remaining
Just the number, please.

GET /values?readout=Normalized DMPK Remaining&system=DMPK&item= 355 (CCCGUCUGCUUCAUCUUCAC; chemistry not given here) [compound 355] 0.80

Find the measured Normalized DMPK Remaining: item 376 (GGCUCCUGGGCGGCGCCAGA; chemistry not given here) [compound 376] , target or system DMPK. 1.00

Requested read-out Normalized DMPK Remaining, target or system DMPK, entry 256 (UCCGCCAGGUAGAAGCGCGC; chemistry not given here) [compound 256] 0.72

Field: Normalized DMPK Remaining (DMPK). Entry: 277 (GACCAGGUACAGGUAGUUCU; chemistry not given here) [compound 277] 0.57

// map 248 (CAAACUUGCUCAGCAGUGUC; chemistry not given here) [compound 248] to recorded Normalized DMPK Remaining (system: DMPK) 0.69

Missing value: Normalized DMPK Remaining, DMPK, entry 302 (CCACGUAAUACUCCAUGACC; chemistry not given here) [compound 302] . Fill in? 0.79

# value lookup — system DMPK, readout Normalized DMPK Remaining, item 327 (CCCAAACUUGCUCAGCAGUG; chemistry not given here) [compound 327] 0.63

API: value(readout= Normalized DMPK Remaining, system= DMPK, query= 265 (GUCGGGUUUGAUGUCCCUGU; chemistry not given here) [compound 265] ) 0.71

Give Normalized DMPK Remaining (DMPK) of the following substance: 324 (GCCUCAGCCUCUGCCGCAGG; chemistry not given here) [compound 324] 0.84

Kindly state the measured Normalized DMPK Remaining obtained for 300 (GGCCUCAGCCUCUGCCGCAG; chemistry not given here) [compound 300] with DMPK. 0.80

Give recorded Normalized DMPK Remaining with DMPK for the following substance: 360 (GACAAUAAAUACCGAGGAAU; chemistry not given here) [compound 360] 0.71

Request - read-out Normalized DMPK Remaining | tested on DMPK | substance 350 (ACUUGCUCAGCAGUGUCAGC; chemistry not given here) [compound 350] 0.72

Field: Normalized DMPK Remaining (DMPK). Entry: 307 (GGGUUUGAUGUCCCUGUGCA; chemistry not given here) [compound 307] 0.60

# returns recorded Normalized DMPK Remaining (system: DMPK) for 348 (AUGAUCUUCAUGGCAUACAC; chemistry not given here) [compound 348] 0.87

I'm curious: which Normalized DMPK Remaining was measured for 282 (AAAGCGCCUCCGAUAGGCCA; chemistry not given here) [compound 282] tested on DMPK? 0.80

Please provide the recorded Normalized DMPK Remaining for 341 (AGGGCGUCUGCCCAUAGAAC; chemistry not given here) [compound 341] , tested on DMPK. 0.87

Give DMPK Normalized DMPK Remaining for 249 (AAACUUGCUCAGCAGUGUCA; chemistry not given here) [compound 249] 0.69

Identify the measured Normalized DMPK Remaining of 365 (UCUCAGUGCAUCCAAAACGU; chemistry not given here) [compound 365] for DMPK. 0.89

Checklist item: Normalized DMPK Remaining tested on DMPK, entry 278 (CCAUCUCGGCCGGAAUCCGC; chemistry not given here) [compound 278] , value? 0.79

Item 318 (AGGAGCAGGGAAAGCGCCUC; chemistry not given here) [compound 318] with DMPK - Normalized DMPK Remaining? 0.67

I'm curious: which Normalized DMPK Remaining was measured for 306 (AGGGACAGCCGCUGGAACTG; chemistry not given here) [compound 306] tested on DMPK? 0.71

Notebook: pull reported Normalized DMPK Remaining for DMPK, entry 305 (UGAUCUUCAUGGCAUACACC; chemistry not given here) [compound 305] 0.72

What reported Normalized DMPK Remaining corresponds to 345 (AAGCGCCUCCGAUAGGCCAG; chemistry not given here) [compound 345] on DMPK? 0.91

Identify the measured Normalized DMPK Remaining of 321 (GCUCCCUCUGCCUGCAGCAA; chemistry not given here) [compound 321] for DMPK. 0.74
